target: recombinant homotrimeric HA A/Hong Kong/1073/99 H9N2 (Influenza A virus A/Hong Kong/1073/99 (H9N2)); test: protein microarray, purified IgG, trimeric HA; details: remark: other sources report otherwise
experimentalEndpoint: Trimeric HA Binding: RLU (RLU)

INSERT INTO results (binder, measuredvalue) VALUES
  ('TCN-557 (5081_A04) (antibody, V domains shown) VH: QVQLVQSGAEVKKPGASVKVSCKASGHTFTGYYIHWVRQAPGQGLEWMGWINPDSGATSSAQNFQGRVTMTGDTSSSTAYMELSRLSFDDTAVYYCARVLFTSPFDFWGEGTLVTVSS VL: QAVVTQEPSLAVSPGGTVTLTCGSSTGAVTRGHYPYWFQQKPGQAPRALIYDSAGNRHSWTPARFSGSLLGGKAALTLSGAQPEDEAEYYCLLSYSGVWVFGGGTKLTVL', 440),
  ('TCN-539 (5056_A08) (antibody, V domains shown) VH: QVQLVESGGGVVQPGRSLRLSCAASEITFITYAMHWVRQAPGKGLEWVALISDDGSNKFYADSVKGRFTISRDNSKNTLYLQMNSLRAEDTAAYYCAREGVYFDSGTYRGYFDYWGQETLVTVSS VL: EIVLTQSPATLSLSPGERATLSCRASQSVSSYLAWYQQKPGQAPRLLIYDASNRATGIPARFSGSGSGTDFTLTISSLEPEDFAVYYCQQRSHWPPITFGQGTRLEIK', 416),
  ('TCN-530 (5248_H10a) (antibody, V domains shown) VH: QVQLVQSGAEVRKPGSSVKVSCKASGGPFMSYAIGWVRQAPGQGLEWMGGINPVFGRPHYAQKFQGRVTIATDDSTKTSYMELSSLTSEDTGMYYCASRYSRSSPGTFESWGQGTLVTVSS VL: EIVMTQFPATLSVSPGERVTLSCRASQSVSNNLAWYQQKPGQPPRLLIYDASTRATGVPAKFSGTGSGTEFTLSISSLQSEDFAVYYCQQYHNWPPSYSFGLGTKLEIK', 874);
